Kindly state pIC50 for each of the entries shown.
target: UniProtKB Q9NR96
Sequence (Q9NR96 26-1032): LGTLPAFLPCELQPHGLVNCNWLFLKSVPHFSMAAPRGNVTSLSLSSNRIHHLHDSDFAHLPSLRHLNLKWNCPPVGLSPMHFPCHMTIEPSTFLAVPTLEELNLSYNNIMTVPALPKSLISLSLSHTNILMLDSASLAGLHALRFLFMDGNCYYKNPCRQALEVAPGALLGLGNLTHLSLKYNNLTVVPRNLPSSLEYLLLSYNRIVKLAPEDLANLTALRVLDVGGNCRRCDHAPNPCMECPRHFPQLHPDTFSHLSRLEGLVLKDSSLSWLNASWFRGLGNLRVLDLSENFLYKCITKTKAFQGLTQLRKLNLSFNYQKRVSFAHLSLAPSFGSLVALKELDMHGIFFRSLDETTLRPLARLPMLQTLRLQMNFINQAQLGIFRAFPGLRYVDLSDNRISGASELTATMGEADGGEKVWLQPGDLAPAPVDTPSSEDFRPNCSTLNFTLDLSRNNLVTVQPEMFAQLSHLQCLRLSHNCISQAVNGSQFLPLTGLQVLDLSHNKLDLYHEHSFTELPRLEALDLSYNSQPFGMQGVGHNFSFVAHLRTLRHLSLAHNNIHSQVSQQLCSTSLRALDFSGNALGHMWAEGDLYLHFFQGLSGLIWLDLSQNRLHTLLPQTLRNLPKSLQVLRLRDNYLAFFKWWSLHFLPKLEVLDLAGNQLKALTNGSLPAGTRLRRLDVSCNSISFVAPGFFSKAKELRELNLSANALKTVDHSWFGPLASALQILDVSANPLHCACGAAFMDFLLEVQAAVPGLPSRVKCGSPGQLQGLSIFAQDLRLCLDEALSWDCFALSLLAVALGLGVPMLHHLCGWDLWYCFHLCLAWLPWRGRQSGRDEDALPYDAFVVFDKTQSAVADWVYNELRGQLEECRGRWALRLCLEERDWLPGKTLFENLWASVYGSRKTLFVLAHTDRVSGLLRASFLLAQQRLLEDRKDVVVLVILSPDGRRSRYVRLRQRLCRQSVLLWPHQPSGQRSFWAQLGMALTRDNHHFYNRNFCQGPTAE
protocol: TLR9 inhibition reporter assay (HEK-Blue cells, SEAP reporter, ODN2006 stimulation)
details: HEK-Blue cells overexpressing human TLR9, SEAP reporter, ODN2006 5 nM
Numbers only, as −log10 of the molar value.

Please review the entries below; each comes with its answer.
> print(dat)
                                   molecule  observed.measurement
1  Cc1cc(-c2[nH]nc(-c3cccc(N(C)C)c3)c2C(C)C)cn2ncnc12                  4.64
2  Cc1cc(-c2[nH]nc(-c3nc4c(s3)CN(C(=O)CN(C)C)CC4)c2C(C)C)cn2ncnc12                  5.46
3  Cc1cc(-c2[nH]nc(C(=O)N[C@H]3CCCNC3)c2C(C)C)cn2ncnc12                  5.18

Give pIC50 for all molecules that follow.
1. CNC(=O)CN1CCC(c2cnc(-c3n[nH]c(-c4cc(OC)c5ncnn5c4)c3C(C)C)cn2)CC1
2. Cc1cc(-c2[nH]nc(C(=O)N[C@H]3CC[C@@H](NCC4(C)COC4)CC3)c2C(C)C)cn2ncnc12

1: 5.03; 2: 4.63

Give pIC50 for all molecules that follow.
1. Cc1cc(-c2[nH]nc(-c3ncc(C4CCN(C(C)C)CC4)cn3)c2C(C)C)cn2ncnc12
2. COc1cc(-c2[nH]nc(-c3ccc(C4CCN(CC(=O)N(C)C)CC4)cn3)c2C(C)C)cn2ncnc12
3. Cc1cc(-c2[nH]nc(C(=O)NCC3CN(C(C)C)CCO3)c2C(C)C)cn2ncnc12 (centres unmarked) [Example 141]
4. Cc1cc(-c2[nH]nc(-c3cnc(N(C)C)cn3)c2C(C)C)cn2ncnc12
5. Cc1cc(-c2[nH]nc(C(=O)N[C@H]3CC[C@@H](NC(C)C(C)C)CC3)c2C(C)C)cn2ncnc12 (some centres unmarked)

5.19
4.43
4.89
4.59
5.44

Give pIC50 for all molecules that follow.
1. Cc1cc(-c2[nH]nc(C(=O)NC3CCN(CC4CC4)CC3)c2C(C)C)cn2ncnc12
2. Cc1cc(-c2[nH]nc(-c3ccc(C4CCN(C)CC4)cc3)c2C(C)C)cn2ncnc12
3. COc1ncc(CN[C@H]2CC[C@H](NC(=O)c3n[nH]c(-c4cc(C)c5ncnn5c4)c3C(C)C)CC2)cn1
4. Cc1cc(-c2[nH]nc(CN(C)C)c2C(C)C)cn2ncnc12
5. Cc1cc(-c2[nH]nc(C(=O)N[C@H]3CC[C@H](NCc4cncnc4)CC3)c2C(C)C)cn2ncnc12

1: 5.37; 2: 4.84; 3: 5.84; 4: 4.94; 5: 5.11

Give pIC50 for all molecules that follow.
1. Cc1cc(-c2[nH]nc(-c3nc4c(s3)CN(CC(C)(C)O)CC4)c2C(C)C)cn2ncnc12
2. Cc1cc(-c2[nH]nc(C(=O)N[C@H]3CC[C@@H](NCC4CCOC4)CC3)c2C(C)C)cn2ncnc12 (some centres unmarked)
3. Cc1cc(-c2[nH]nc(C(=O)NC3CCN(C(C)C)CC3)c2CC(F)(F)F)cn2ncnc12
4. Cc1cc(-c2[nH]nc(C(=O)NC3CCN(CC(C)(C)C)CC3)c2C(C)C)cn2ncnc12
5. COCCN1CCC(c2ccc(-c3n[nH]c(-c4cc(OC)c5ncnn5c4)c3C(C)C)cc2)CC1

1. 4.32
2. 5.11
3. 5.12
4. 5.72
5. 4.67

Ref: patent US20230117470A1
